Answer each item with its documented Relative Affinity.
- assay-system: T1, sIL-6R (soluble IL-6 receptor; SBH Sciences) (human, UniProt P08887 20-365)
- T1 construct: also called human IL-6R
- T1 sequence: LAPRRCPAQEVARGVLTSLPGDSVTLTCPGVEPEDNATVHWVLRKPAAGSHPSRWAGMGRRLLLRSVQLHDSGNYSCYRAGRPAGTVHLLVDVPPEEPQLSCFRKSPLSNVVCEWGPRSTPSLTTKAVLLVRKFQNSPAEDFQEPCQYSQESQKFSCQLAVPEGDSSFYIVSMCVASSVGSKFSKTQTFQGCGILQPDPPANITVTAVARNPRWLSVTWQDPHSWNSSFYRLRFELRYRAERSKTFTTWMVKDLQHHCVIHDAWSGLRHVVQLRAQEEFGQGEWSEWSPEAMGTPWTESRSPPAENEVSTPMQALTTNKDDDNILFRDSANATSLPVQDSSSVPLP
- test-details: SPR (BIAcore 3000), antibody on chip, sIL-6R analyte, 25 C

- 26# (antibody, human IgG1, kappa, V domains shown, also called Sample # 26) VH: QVQLQESGPGLVRPSQTLSLTCTVSGYSITSDHAWSWVRQPPGRGLEWIGYISYSGMTTYNPSLKSRVTMLRDTSKNQFSLRLSSVTAADTAVYYCARSLARTTAMDYWGQGSLVTVSS VL: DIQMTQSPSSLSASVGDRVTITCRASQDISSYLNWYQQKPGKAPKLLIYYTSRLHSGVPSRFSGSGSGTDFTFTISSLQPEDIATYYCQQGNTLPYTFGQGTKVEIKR: 3.2 fold vs 25 (Tocilizumab)

For the 3 binders below, give their Relative Affinity values.
1. Tocilizumab (antibody, human IgG1, kappa, V domains shown, also called 25; 25(control)) VH: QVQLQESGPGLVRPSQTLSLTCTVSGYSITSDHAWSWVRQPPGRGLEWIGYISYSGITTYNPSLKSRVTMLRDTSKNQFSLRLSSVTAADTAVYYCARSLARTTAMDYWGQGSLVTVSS VL: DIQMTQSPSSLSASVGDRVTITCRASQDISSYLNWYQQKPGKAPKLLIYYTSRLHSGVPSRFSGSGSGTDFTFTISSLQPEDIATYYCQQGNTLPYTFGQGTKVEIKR
2. 15# (antibody, human IgG1, kappa, V domains shown, also called Sample # 15) VH: QVQLQESGPGLVRPSQTLSLTCTVSGYSITSDHAWSWVRQPPGRGLEWIGFISYSGITTYNPSLKSRVTMLRDTSKNQFSLRLSSVTAADTAVYYCARCLARITAMDYWGQGSLVTVSS VL: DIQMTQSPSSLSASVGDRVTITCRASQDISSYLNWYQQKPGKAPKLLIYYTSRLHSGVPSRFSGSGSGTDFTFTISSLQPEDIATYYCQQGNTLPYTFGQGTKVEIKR
3. 31# (antibody, human IgG1, kappa, V domains shown, also called Sample # 31) VH: QVQLQESGPGLVRPSQTLSLTCTVSGYSITSDHAWSWVRQPPGRGLEWIGFISYSGMTTYNPSLKSRVTMLRDTSKNQFSLRLSSVTAADTAVYYCARSLARITAMDYWGQGSLVTVSS VL: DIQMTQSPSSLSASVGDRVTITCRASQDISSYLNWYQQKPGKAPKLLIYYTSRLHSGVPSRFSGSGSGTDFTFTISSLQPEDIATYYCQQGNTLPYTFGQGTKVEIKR

Marked response:
1 fold vs 25 (Tocilizumab)
9.2 fold vs 25 (Tocilizumab)
13.4 fold vs 25 (Tocilizumab)
